# measuredTarget: human mGlu2 receptor (Homo sapiens (Human), UniProt Q14416)
# Sequence (Q14416 19-872): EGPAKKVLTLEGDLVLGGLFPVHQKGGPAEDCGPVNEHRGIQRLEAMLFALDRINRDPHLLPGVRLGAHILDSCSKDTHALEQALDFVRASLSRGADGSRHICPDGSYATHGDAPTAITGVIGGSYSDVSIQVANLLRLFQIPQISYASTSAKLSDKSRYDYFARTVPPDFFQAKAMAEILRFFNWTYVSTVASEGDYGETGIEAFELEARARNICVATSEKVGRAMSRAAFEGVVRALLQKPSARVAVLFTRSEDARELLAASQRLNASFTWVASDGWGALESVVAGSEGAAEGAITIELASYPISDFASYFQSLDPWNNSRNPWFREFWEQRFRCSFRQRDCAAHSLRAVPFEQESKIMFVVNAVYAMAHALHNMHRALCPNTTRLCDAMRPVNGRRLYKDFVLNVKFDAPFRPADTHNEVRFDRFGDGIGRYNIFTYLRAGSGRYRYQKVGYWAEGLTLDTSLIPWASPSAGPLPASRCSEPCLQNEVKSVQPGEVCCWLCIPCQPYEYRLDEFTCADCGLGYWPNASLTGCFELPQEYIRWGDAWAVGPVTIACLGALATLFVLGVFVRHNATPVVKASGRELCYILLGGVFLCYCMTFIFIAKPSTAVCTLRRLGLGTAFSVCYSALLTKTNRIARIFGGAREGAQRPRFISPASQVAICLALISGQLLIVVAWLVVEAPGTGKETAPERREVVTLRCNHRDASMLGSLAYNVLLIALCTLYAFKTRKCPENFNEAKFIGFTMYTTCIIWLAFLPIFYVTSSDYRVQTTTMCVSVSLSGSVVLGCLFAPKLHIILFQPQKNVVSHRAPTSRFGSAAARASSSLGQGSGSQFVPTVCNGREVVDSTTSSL
# testSummary: Assessment of mGlu2 receptor negative allosteric modulator activity in human mGlu2 receptor stable expressing cells (aequorin luminescence, EC80 glutamate)
# Type: cell-based
# conditionDescription: human mGlu2 receptor stable expressing HEK cells; compound added 120 seconds before EC80 glutamate; luminescence (RLU); read-out: mGluR2 NAM IC50 (nM) or inhibition rate (%)
# Experimental: Test 1: Assessment with Human mGlu2 Receptor Stable Expressing Cells (1) Human mGlu2 Receptor Stable Expressing Cells Human mGlu2 receptor stable expressing cells were prepared, and used for incubation. […] Human mGlu2 receptor stable expressing cells were prepared and incubated. Luminescence signals by mGlu2 receptor stimulation were detected with FDSS7000 (Hamamatsu Photonics). […]

compound	measuredTarget	unitsSymbol	IC50
CCCc1cnc2ccc(-c3cnn4c3C(=O)N(c3ccc(C(F)(F)F)cc3)C[C@@H]4C)cn12 [Example 16]	human mGlu2 receptor (Homo sapiens (Human), UniProt Q14416)	nM	13
C[C@H]1CN(c2ccc(C(F)(F)F)cc2)C(=O)c2c(-c3ccc4ncc(N)n4c3)cnn21 [Example 11]	human mGlu2 receptor (Homo sapiens (Human), UniProt Q14416)	nM	78
C[C@H]1CN(c2ccc(C(F)(F)F)cc2)C(=O)c2c(-c3ccc4nc(N)cn4c3)cnn21 [Example 10]	human mGlu2 receptor (Homo sapiens (Human), UniProt Q14416)	nM	302
C[C@H]1CN(c2ccc(Cl)s2)C(=O)c2c(-c3ccc4nccn4c3)cnn21 [Example 7]	human mGlu2 receptor (Homo sapiens (Human), UniProt Q14416)	nM	11
